target.of.assay: T1, human FGFR3b expressed with a C-terminal myc-myc-hexahistidine tag (hFGFR3b.mmH) (human)
T1 construct: also called REGN3152; monomeric human FGFR3b
T1 chain: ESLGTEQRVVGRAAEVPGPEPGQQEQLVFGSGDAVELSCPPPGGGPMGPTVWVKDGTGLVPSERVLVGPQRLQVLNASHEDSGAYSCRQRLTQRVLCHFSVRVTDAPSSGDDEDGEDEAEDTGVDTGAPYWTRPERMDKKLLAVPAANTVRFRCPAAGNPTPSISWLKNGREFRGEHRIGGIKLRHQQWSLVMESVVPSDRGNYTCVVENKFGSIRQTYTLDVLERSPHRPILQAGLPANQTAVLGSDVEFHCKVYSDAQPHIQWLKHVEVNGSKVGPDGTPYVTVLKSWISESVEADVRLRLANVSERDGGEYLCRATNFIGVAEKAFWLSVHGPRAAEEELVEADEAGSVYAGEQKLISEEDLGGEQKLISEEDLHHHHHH
experiment.description: SPR Biacore, mAb captured on anti-hFc, 25C
experimental.endpoint: Kd (pM)
Write down the numeric answer in pM and omit the unit.

Query: What Kd value was documented for this binder, H4H30076P (antibody, human IgG4 S228P, kappa, V domains shown) VH: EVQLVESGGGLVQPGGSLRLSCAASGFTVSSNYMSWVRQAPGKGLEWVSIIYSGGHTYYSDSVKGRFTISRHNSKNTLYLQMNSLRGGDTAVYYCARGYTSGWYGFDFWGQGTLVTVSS VL: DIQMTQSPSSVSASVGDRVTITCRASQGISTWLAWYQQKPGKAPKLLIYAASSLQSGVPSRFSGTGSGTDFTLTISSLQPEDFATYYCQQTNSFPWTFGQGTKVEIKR ?
Result: 186

Data provenance: patent US20240158515A1
